Values compiled from ChEMBL document CHEMBL3046832.

Test system: EKVX
TEST_METHOD_NOTES: Cytotoxicity against Homo sapiens (human) EKVX cells after 48 hr by SRB assay
Type: functional
For each of the compounds below, state its GI50.
Reply with just the number (in µM).

Value of GI50 reported for the compound NS(=O)(=O)c1ccc(N2N=C3c4ccccc4CC3C2c2cccs2)cc1 (centres undefined) is 15.9

Value of GI50 reported for the compound O=C(c1ccccc1)n1c(-c2ccccc2)cs/c1=N\S(=O)(=O)c1ccc(N2N=C3c4ccccc4CC3C2c2cccs2)cc1 (centres undefined) is 40.7

Value of GI50 reported for the compound O=S(=O)(/N=c1\scc(-c2ccccc2)n1-c1ccccc1)c1ccc(N2N=C3c4ccccc4CC3C2c2cccs2)cc1 (centres undefined) is 35.5

Value of GI50 reported for the compound O=S(=O)(NC(=S)Nc1ccccc1)c1ccc(N2N=C3c4ccccc4CC3C2c2cccs2)cc1 (centres undefined) is 19.5

Value of GI50 reported for the compound O=C1CS/C(=N\S(=O)(=O)c2ccc(N3N=C4c5ccccc5CC4C3c3cccs3)cc2)N1C(=O)c1ccccc1 (centres undefined) is 42.4

Value of GI50 reported for the compound O=C(NC1CCCCC1)NS(=O)(=O)c1ccc(-n2nc3c(c2-c2cccs2)Cc2ccccc2-3)cc1 is 28.6

Value of GI50 reported for the compound O=C(Nc1ccccc1)NS(=O)(=O)c1ccc(-n2nc3c(c2-c2cccs2)Cc2ccccc2-3)cc1 is 26.1

Value of GI50 reported for the compound O=C1CCS/C(=N\S(=O)(=O)c2ccc(N3N=C4c5ccccc5CC4C3c3cccs3)cc2)N1C(=O)c1ccccc1 (centres undefined) is 22.1

Value of GI50 reported for the compound NS(=O)(=O)c1ccc(-n2nc3c(c2-c2cccs2)Cc2ccccc2-3)cc1 is 11.9

* * *

TEST_METHOD_NOTES: Cytotoxicity against Homo sapiens (human) non-small cell lung cancer cells after 48 hr by SRB assay
Assay type: functional
RUN_PARAMETERS: Cancer cell lines
For each of the molecules below, state its GI50.
Reply with just the number (in µM).

Value of GI50 reported for the molecule NS(=O)(=O)c1ccc(N2N=C3c4ccccc4CC3C2c2cccs2)cc1 (stereo not given) is 29.6

Value of GI50 reported for the molecule O=C(NC1CCCCC1)NS(=O)(=O)c1ccc(-n2nc3c(c2-c2cccs2)Cc2ccccc2-3)cc1 is 38.7

Value of GI50 reported for the molecule NS(=O)(=O)c1ccc(-n2nc3c(c2-c2cccs2)Cc2ccccc2-3)cc1 is 21.7

Value of GI50 reported for the molecule O=C(Nc1ccccc1)NS(=O)(=O)c1ccc(N2N=C3c4ccccc4CC3C2c2cccnc2)cc1 (stereo not given) is 30

Value of GI50 reported for the molecule O=C(NC(=S)NS(=O)(=O)c1ccc(N2N=C3c4ccccc4CC3C2c2cccs2)cc1)c1ccccc1 (stereo not given) is 37.9

* * *

TEST_METHOD_NOTES: Cytotoxicity against Homo sapiens (human) ovarian cancer cells after 48 hr by SRB assay
Type: functional
RUN_PARAMETERS: Cancer cell lines
READOUT_NAME: GI50 (µM)
Reply with just the number (in µM).

Value of GI50 reported for the molecule O=C(c1ccccc1)n1c(-c2ccccc2)cs/c1=N\S(=O)(=O)c1ccc(N2N=C3c4ccccc4CC3C2c2cccs2)cc1 (stereo not drawn) is 72

Value of GI50 reported for the molecule O=C(Nc1ccccc1)NS(=O)(=O)c1ccc(N2N=C3c4ccccc4CC3C2c2cccnc2)cc1 (stereo not drawn) is 48.6

Value of GI50 reported for the molecule O=S(=O)(/N=c1\scc(-c2ccccc2)n1-c1ccccc1)c1ccc(N2N=C3c4ccccc4CC3C2c2cccs2)cc1 (stereo not drawn) is 87.2

Value of GI50 reported for the molecule O=C(NC(=S)NS(=O)(=O)c1ccc(N2N=C3c4ccccc4CC3C2c2cccs2)cc1)c1ccccc1 (stereo not drawn) is 41.9

Value of GI50 reported for the molecule O=C(NC1CCCCC1)NS(=O)(=O)c1ccc(-n2nc3c(c2-c2cccs2)Cc2ccccc2-3)cc1 is 25.3

Value of GI50 reported for the molecule O=C1CS/C(=N\S(=O)(=O)c2ccc(N3N=C4c5ccccc5CC4C3c3cccs3)cc2)N1C(=O)c1ccccc1 (stereo not drawn) is 60.9

Value of GI50 reported for the molecule O=C1CCS/C(=N\S(=O)(=O)c2ccc(N3N=C4c5ccccc5CC4C3c3cccs3)cc2)N1c1ccccc1 (stereo not drawn) is 27.8

Value of GI50 reported for the molecule O=S(=O)(NC(=S)Nc1ccccc1)c1ccc(N2N=C3c4ccccc4CC3C2c2cccs2)cc1 (stereo not drawn) is 43

* * *

TEST_METHOD_NOTES: Cytotoxicity against Homo sapiens (human) renal cancer cells after 48 hr by SRB assay
Format: functional
RUN_PARAMETERS: Cancer cell lines
# note: exactly 30 µM is not below, so it is not satisfied; use satisfied for GI50 strictly under it

Lab note: confirm whether the reported GI50 for this molecule is below 30 µM, equality not counting. molecule: NS(=O)(=O)c1ccc(-n2nc3c(c2-c2cccs2)Cc2ccccc2-3)cc1 satisfied

Lab note: confirm whether the reported GI50 for this molecule is below 30 µM, equality not counting. molecule: O=S(=O)(NC(=S)Nc1ccccc1)c1ccc(N2N=C3c4ccccc4CC3C2c2cccs2)cc1 (stereo not drawn) not satisfied

Lab note: confirm whether the reported GI50 for this molecule is below 30 µM, equality not counting. molecule: O=C1CS/C(=N\S(=O)(=O)c2ccc(N3N=C4c5ccccc5CC4C3c3cccs3)cc2)N1C(=O)c1ccccc1 (stereo not drawn) not satisfied

Lab note: confirm whether the reported GI50 for this molecule is below 30 µM, equality not counting. molecule: NS(=O)(=O)c1ccc(N2N=C3c4ccccc4CC3C2c2cccs2)cc1 (stereo not drawn) satisfied

Lab note: confirm whether the reported GI50 for this molecule is below 30 µM, equality not counting. molecule: O=S(=O)(/N=c1\scc(-c2ccccc2)n1-c1ccccc1)c1ccc(N2N=C3c4ccccc4CC3C2c2cccs2)cc1 (stereo not drawn) not satisfied

Lab note: confirm whether the reported GI50 for this molecule is below 30 µM, equality not counting. molecule: O=C(Nc1ccccc1)NS(=O)(=O)c1ccc(N2N=C3c4ccccc4CC3C2c2cccnc2)cc1 (stereo not drawn) not satisfied

Lab note: confirm whether the reported GI50 for this molecule is below 30 µM, equality not counting. molecule: O=C(c1ccccc1)n1c(-c2ccccc2)cs/c1=N\S(=O)(=O)c1ccc(N2N=C3c4ccccc4CC3C2c2cccs2)cc1 (stereo not drawn) not satisfied

* * *

Test system: SF-268
TEST_METHOD_NOTES: Cytotoxicity against Homo sapiens (human) SF268 cells after 48 hr by SRB assay
Format: functional
RUN_PARAMETERS: SF-268, 48 h
READOUT_NAME: GI50

Value of GI50 reported for the compound O=C(NC1CCCCC1)NS(=O)(=O)c1ccc(-n2nc3c(c2-c2cccs2)Cc2ccccc2-3)cc1 is > 100 µM

Value of GI50 reported for the compound NS(=O)(=O)c1ccc(-n2nc3c(c2-c2cccs2)Cc2ccccc2-3)cc1 is > 100 µM

Value of GI50 reported for the compound O=C1CS/C(=N\S(=O)(=O)c2ccc(N3N=C4c5ccccc5CC4C3c3cccs3)cc2)N(c2ccccc2)C1 (stereo not drawn) is > 100 µM

Value of GI50 reported for the compound O=C(Nc1ccccc1)NS(=O)(=O)c1ccc(-n2nc3c(c2-c2cccs2)Cc2ccccc2-3)cc1 is 26 µM

Value of GI50 reported for the compound O=C1CS/C(=N\S(=O)(=O)c2ccc(N3N=C4c5ccccc5CC4C3c3cccs3)cc2)N1C(=O)c1ccccc1 (stereo not drawn) is > 100 µM

Value of GI50 reported for the compound O=S(=O)(NC(=S)Nc1ccccc1)c1ccc(N2N=C3c4ccccc4CC3C2c2cccs2)cc1 (stereo not drawn) is 30.7 µM

Value of GI50 reported for the compound O=C(NC(=S)NS(=O)(=O)c1ccc(N2N=C3c4ccccc4CC3C2c2cccs2)cc1)c1ccccc1 (stereo not drawn) is > 100 µM

Value of GI50 reported for the compound O=C1CCS/C(=N\S(=O)(=O)c2ccc(N3N=C4c5ccccc5CC4C3c3cccs3)cc2)N1c1ccccc1 (stereo not drawn) is > 100 µM

Value of GI50 reported for the compound O=C1CCS/C(=N\S(=O)(=O)c2ccc(N3N=C4c5ccccc5CC4C3c3cccs3)cc2)N1C(=O)c1ccccc1 (stereo not drawn) is 13.7 µM

Value of GI50 reported for the compound O=S(=O)(/N=c1\scc(-c2ccccc2)n1-c1ccccc1)c1ccc(N2N=C3c4ccccc4CC3C2c2cccs2)cc1 (stereo not drawn) is > 100 µM

Value of GI50 reported for the compound NS(=O)(=O)c1ccc(N2N=C3c4ccccc4CC3C2c2cccs2)cc1 (stereo not drawn) is > 100 µM

Value of GI50 reported for the compound O=C(c1ccccc1)n1c(-c2ccccc2)cs/c1=N\S(=O)(=O)c1ccc(N2N=C3c4ccccc4CC3C2c2cccs2)cc1 (stereo not drawn) is > 100 µM

Value of GI50 reported for the compound O=C(Nc1ccccc1)NS(=O)(=O)c1ccc(N2N=C3c4ccccc4CC3C2c2cccnc2)cc1 (stereo not drawn) is 62.1 µM
